- study system: Calcium-dependent protein kinase 4 (Plasmodium falciparum (isolate 3D7)) (UniProt Q8IBS5)
- Sequence (Q8IBS5 whole entry, looked up): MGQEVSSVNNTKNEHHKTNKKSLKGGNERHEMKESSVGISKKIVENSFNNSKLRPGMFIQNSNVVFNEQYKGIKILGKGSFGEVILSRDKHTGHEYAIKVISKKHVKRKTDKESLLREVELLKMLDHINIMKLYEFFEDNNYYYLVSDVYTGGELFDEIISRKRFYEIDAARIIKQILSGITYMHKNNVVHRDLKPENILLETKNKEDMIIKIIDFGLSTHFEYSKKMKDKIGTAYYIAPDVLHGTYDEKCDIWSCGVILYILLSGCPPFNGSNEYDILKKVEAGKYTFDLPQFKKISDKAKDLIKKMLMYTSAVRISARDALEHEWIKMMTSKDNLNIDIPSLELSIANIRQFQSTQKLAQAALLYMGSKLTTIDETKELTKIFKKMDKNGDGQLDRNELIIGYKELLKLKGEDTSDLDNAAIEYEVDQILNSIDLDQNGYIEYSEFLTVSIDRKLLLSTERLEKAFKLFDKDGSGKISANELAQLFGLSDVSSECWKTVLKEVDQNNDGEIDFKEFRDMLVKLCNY
- measurement notes: PfCDPK4 kinase inhibitors, biochemical, TCAMS library (AID 1159588)
- experimental context: recombinant PfCDPK4, Kinase-Glo ATP depletion luminescence
Entries with a potency or affinity are not part of this list. The source made the active and inactive calls. Cut-off not given; nearly all actives show IC50 up to about 0.91 µM.
parameter: outcome

As a guide, the following entries are already answered.
| compound | outcome |
| --- | --- |
| COc1cc(NC(=O)c2ccc(-c3ccc(C(C)=O)cc3)s2)ccc1OCCN1CCCC1 | inactive |
| O=C(COc1ccccc1)Nn1cnc2ccccc21 | inactive |
| CCC(Cc1cnc2nc(N)nc(N)c2n1)c1ccc(C(=O)N[C@@H](CCC(=O)O)C(=O)O)cc1 (stereo not given in full) | inactive |
| c1cc(Nc2nccc(-c3cnn4ncccc34)n2)cc(-c2cnco2)c1 | inactive |

Data request: Return outcome measured with Calcium-dependent protein kinase 4 (Plasmodium falciparum (isolate 3D7)) (UniProt Q8IBS5) given this compound: CC(=O)c1cccc(NC(=O)N2CCCN(CCCCCNC(=O)/C=C/c3ccc(Cl)c(Cl)c3)CC2)c1
Data returned: inactive

Data request: Note, next up: COc1ccc2ncc(C#N)c(CCN3CCC(NCc4cnc5c(c4)OCCO5)CC3)c2n1
Data returned: inactive

Data request: Note, next up: COc1ccc(Cl)cc1N1CCN(CCCNC(=O)c2ccc(-c3nc4cc(Cl)c(Cl)cc4[nH]3)c(C)c2)CC1
Data returned: inactive

Data request: Note, next up: CO/C(=C\C=C\c1cc2cc(Cl)c(Cl)cc2[nH]1)C(=O)Nc1ccc(NCCN(C)C)nc1
Data returned: inactive

Data request: Note, next up: CN1CCCC1CNS(=O)(=O)c1ccc(C(=O)NCC2CC2)cc1 (stereo not given)
Data returned: inactive

Data request: Note, next up: O=C(/C=C/c1ccc(Cl)c(Cl)c1)N1CCN(C(=O)Nc2ccc(C(F)(F)F)cc2)CC1
Data returned: inactive
